Measured remaining at 0.25 h, 1 µM by item
Assay: Stability in Syrian hamster serum assessed as parent compound remaining at 1 uM measured after 15 mins by LC-MS/MS analysis
Assay type: ADME, cell-free, Mesocricetus auratus
Conditions: read-out: Stability
Unit % implied. Number only.

Look up remaining at 0.25 h, 1 µM for this compound: O=C(Cc1ccccc1)N1CCN(C(=S)Nc2cc(C(F)(F)F)cc(C(F)(F)F)c2)C(c2ccccc2)C1 (centres undefined) 97.2

* * *

Assay: Cytotoxicity against human A549 cells assessed as reduction in cell viability incubated for 48 hrs by alamarBlue assay
Type: cell-based
Observed Property: CC50 at 48 h

1. O=C(Nc1cc(C(F)(F)F)ccc1Cl)N1CCN(C(=O)Nc2cc(C(F)(F)F)ccc2Cl)C(c2ccccc2)C1 (stereo not drawn) | 200 µM
2. O=C(Cc1ccccc1)N1CCN(C(=O)Nc2ccc([N+](=O)[O-])cc2)C(c2ccccc2)C1 (stereo not drawn) | 174 µM
3. CC1CN(C(=O)CC2CCCCC2)CCN1C(=S)Nc1ccc(F)cc1 (stereo not drawn) | 143 µM
4. CC1CN(C(=O)CC2CCCCC2)CCN1C(=S)Nc1ccc([N+](=O)[O-])cc1 (stereo not drawn) | 148 µM

Endpoint output: CC50 at 48 h of Cc1ccc(NC(=S)N2CCN(C(=O)Cc3ccccc3)CC2C)cc1 (stereo not drawn) . Value? 200 µM

Any idea what its CC50 at 48 h is? The compound is CC1CN(C(=O)CC2CCCCC2)CCN1C(=S)Nc1cc(C(F)(F)F)cc(C(F)(F)F)c1 (stereo not drawn) 82.4 µM

Which measured CC50 at 48 h value corresponds to O=C(CC1CCCCC1)N1CCN(C(=O)Nc2ccc([N+](=O)[O-])cc2)C(c2ccccc2)C1 (stereo not drawn) ? 71.8 µM

Form field: reported CC50 at 48 h of O=C(Cc1ccccc1)N1CCN(C(=O)Nc2ccccc2[N+](=O)[O-])C(c2ccccc2)C1 (stereo not drawn) 120 µM

* * *

// reported remaining at 0.5 h, 1 µM per item
Test: Stability in Syrian hamster serum assessed as parent compound remaining at 1 uM measured after 30 mins by LC-MS/MS analysis
Type: ADME, cell-free, Mesocricetus auratus
Settings: read-out: Stability
Kindly provide the numeric value in % only, without the unit symbol.

1. CC1CN(C(=O)Cc2ccccc2)CCN1C(=S)Nc1cc(C(F)(F)F)cc(C(F)(F)F)c1 (centres undefined) | 107
2. CC1CN(C(=O)CC2CCCCC2)CCN1C(=S)Nc1ccc(F)cc1 (centres undefined) | 96.4
3. O=C(Cc1ccccc1)N1CCN(C(=S)Nc2cc(C(F)(F)F)cc(C(F)(F)F)c2)C(c2ccccc2)C1 (centres undefined) | 110

Kindly review the next compound as well.
Item CC1CN(C(=O)OC(C)(C)C)CCN1C(=S)Nc1ccc(F)cc1 (centres undefined) has what recorded remaining at 0.5 h, 1 µM? 102

* * *

Assay: Selectivity Index, ratio of CC50 for human A549 cells to IC50 for Human adenovirus 5 infected in HEK293beta5 cells coexpressing GFP
Format: toxicity, cell-based
Conditions: read-out: Ratio CC50/IC50
Parameter selectivity ratio: see the listing below.

A selection of reference data follows.
1) Cc1ccc(NC(=S)N2CCN(C(=O)CC3CCCCC3)CC2C)cc1 (stereo not drawn) | 58.2
2) CC(C)(C)OC(=O)N1CCN(C(=O)Nc2ccc([N+](=O)[O-])cc2)C(c2ccccc2)C1 (stereo not drawn) | 47.3
3) CC(C)(C)OC(=O)N1CCN(C(=O)Nc2cc(C(F)(F)F)ccc2Cl)CC1 | 87
4) O=C(c1cc2ccccc2o1)N1CCN(C(=O)Nc2ccccc2[N+](=O)[O-])C(c2ccccc2)C1 (stereo not drawn) | 79
5) CC1CN(C(=O)CC2CCCCC2)CCN1C(=S)Nc1ccc(C#N)cc1 (stereo not drawn) | 77.2

Now examine the next entry.
For the compound O=C(c1cc2ccccc2o1)N1CCN(C(=O)Nc2ccc(Cl)cc2)C(c2ccccc2)C1 (stereo not drawn) , what selectivity ratio is on record? 42.7

* * *

Assay: Stability in Syrian hamster serum assessed as parent compound remaining at 1 uM measured after 60 mins by LC-MS/MS analysis
Format: ADME, cell-free, Mesocricetus auratus
Conditions: read-out: Stability
Observed Property: remaining at 1 h, 1 µM (%)
Use % as the unit, but write only the number.

1) CC1CN(C(=O)Cc2ccccc2)CCN1C(=S)Nc1cc(C(F)(F)F)cc(C(F)(F)F)c1 (stereo not given) | 96.5
2) CC1CN(C(=O)CC2CCCCC2)CCN1C(=S)Nc1ccc(F)cc1 (stereo not given) | 85
3) CC1CN(C(=O)OC(C)(C)C)CCN1C(=S)Nc1ccc(F)cc1 (stereo not given) | 86.5
4) O=C(Cc1ccccc1)N1CCN(C(=S)Nc2cc(C(F)(F)F)cc(C(F)(F)F)c2)C(c2ccccc2)C1 (stereo not given) | 90.5

Next compound, please.
# query: remaining at 1 h, 1 µM of entry CC1CN(C(=O)Cc2ccccc2)CCN1C(=S)Nc1ccc([N+](=O)[O-])cc1 (stereo not given) 114

* * *

Here, each record is paired with measured remaining at 2 h, 1 µM data.
Test: Stability in Syrian hamster serum assessed as parent compound remaining at 1 uM measured after 120 mins by LC-MS/MS analysis
Type: ADME, cell-free, Mesocricetus auratus
Conditions: read-out: Stability
The reply should consist of the numeric value with the unit placed after it.

Look over these answered cases.
1. CC1CN(C(=O)OC(C)(C)C)CCN1C(=S)Nc1ccc(F)cc1 (stereo not given) | 75.4%
2. CC1CN(C(=O)Cc2ccccc2)CCN1C(=S)Nc1ccc([N+](=O)[O-])cc1 (stereo not given) | 107%
3. CC1CN(C(=O)CC2CCCCC2)CCN1C(=S)Nc1ccc(F)cc1 (stereo not given) | 67.3%

# query: remaining at 2 h, 1 µM of entry CC1CN(C(=O)Cc2ccccc2)CCN1C(=S)Nc1cc(C(F)(F)F)cc(C(F)(F)F)c1 (stereo not given) 92.8%

Would you kindly share the measured remaining at 2 h, 1 µM for O=C(Cc1ccccc1)N1CCN(C(=S)Nc2cc(C(F)(F)F)cc(C(F)(F)F)c2)C(c2ccccc2)C1 (stereo not given) ? 100%

* * *

Test system: Human adenovirus 5
Assay: Antiviral activity against Human adenovirus 5 infected in A549 cells assessed as fold reduction in virus yield at 50 uM incubated for 48 hrs by endpoint dilution method relative to control
Assay type: functional
This section presents molecules with their documented fold change (FC) values.
// no unit string in output, number only

1. CC1CN(C(=O)Cc2ccccc2)CCN1C(=S)Nc1ccc(C#N)cc1 (stereo unspecified) | 18.4
2. Nc1ccn(C[C@@H](CO)OCP(=O)(O)O)c(=O)n1.O.O [CIDOFOVIR] | 82.5
3. CC(C)(C)OC(=O)N1CCN(C(=O)Nc2ccc([N+](=O)[O-])cc2)CC1 | 21.2
4. CC(C)(C)OC(=O)N1CCN(C(=O)Nc2cc(C(F)(F)F)ccc2Cl)CC1 | 18.7
5. Cc1ccc(NC(=S)N2CCN(C(=O)CC3CCCCC3)CC2C)cc1 (stereo unspecified) | 39.1
6. O=C(Cc1ccccc1)N1CCN(C(=S)Nc2cc(C(F)(F)F)cc(C(F)(F)F)c2)C(c2ccccc2)C1 (stereo unspecified) | 1690

Please tell me: fold change (FC) of CC1CN(C(=O)CC2CCCCC2)CCN1C(=S)Nc1ccc(C#N)cc1 (stereo unspecified) , system Human adenovirus 5? 9.3

I'm curious: which fold change (FC) was measured for CC1CN(C(=O)OC(C)(C)C)CCN1C(=S)Nc1ccc(F)cc1 (stereo unspecified) tested on Human adenovirus 5? 12.1

// lookup fold change (FC) | system=Human adenovirus 5 | key= CC1CN(C(=O)Cc2ccccc2)CCN1C(=S)Nc1ccc([N+](=O)[O-])cc1 (stereo unspecified) 25.6

For Human adenovirus 5, provide fold change (FC) of N#Cc1ccc(NC(=O)N2CCN(C(=O)c3cc4ccccc4o3)CC2c2ccccc2)cc1 (stereo unspecified) please. 34.5

Lab note: need fold change (FC) with Human adenovirus 5 for entry CC1CN(C(=O)Cc2ccccc2)CCN1C(=S)Nc1cc(C(F)(F)F)cc(C(F)(F)F)c1 (stereo unspecified) , please look it up. 33.4

Notebook: pull reported fold change (FC) for Human adenovirus 5, entry CC1CN(C(=O)CC2CCCCC2)CCN1C(=S)Nc1ccc(F)cc1 (stereo unspecified) 30.5

Query fold change (FC) on Human adenovirus 5 for O=C(c1cc2ccccc2o1)N1CCN(C(=O)Nc2ccccc2[N+](=O)[O-])C(c2ccccc2)C1 (stereo unspecified) 9.9

Find fold change (FC) (Human adenovirus 5) for the entry O=C(c1cc2ccccc2o1)N1CCN(C(=O)Nc2ccc(Cl)cc2)C(c2ccccc2)C1 (stereo unspecified) 16.9

What fold change (FC) appears in the records for this molecule with Human adenovirus 5? O=C(CC1CCCCC1)N1CCN(C(=O)Nc2ccccc2[N+](=O)[O-])C(c2ccccc2)C1 (stereo unspecified) 15.2

Quick check: fold change (FC) on Human adenovirus 5, item O=C(Cc1ccccc1)N1CCN(C(=O)Nc2ccccc2[N+](=O)[O-])C(c2ccccc2)C1 (stereo unspecified) ? 32.9
